Kindly supply the reported melting point values for the records listed here.

Read the entry O=C(O)C1=Cc2cc(Cl)c(C(F)(F)F)cc2OC1C(F)(F)F (centres undefined) and write its reported melting point. 181 to 182 °C

Read the entry NC1CCCN(c2ncc3ncnc(Nc4ccc(F)c(Cl)c4)c3n2)C1 (centres undefined) and write its reported melting point. 172 to 175 °C

Read the entry CC(=O)Nc1c(OC(C)=O)cc(C(C)(C)C)cc1[N+](=O)[O-] and write its reported melting point. 200 to 201 °C

Read the entry Cc1nn(C)c(OC(=O)CCl)c1C(=O)c1ccc(Cl)cc1Cl and write its reported melting point. 120 to 122 °C

Read the entry COc1cc(OC)c2c(=O)c3oc4ccc(OC)cc4c3oc2c1 and write its reported melting point. 262 to 264 °C

Read the entry COC(=S)c1ccc(C)c(C2=NOCC2)c1C and write its reported melting point. 109 to 111 °C

Read the entry Cc1oc(-c2ccc(S(C)(=O)=O)cc2)c(Oc2ccc(F)cc2F)c(=O)c1Cl and write its reported melting point. 210 °C

Read the entry CCNC(C)CN1CCc2c(c(=O)oc3ccccc23)C1 (centres undefined) and write its reported melting point. 104 to 105 °C

Read the entry Cc1nsc(Cl)c1CS(=O)(=O)C1=NOC(C)(C)C1 and write its reported melting point. 113 to 114 °C

Read the entry CC1(C(=O)O)Cc2ccccc2NC1=O (single isomer, unassigned; (+)) and write its reported melting point. 139 to 141 °C

Read the entry CCc1ccc(Cn2cc(-c3ccc(OC)cc3)ccc2=O)cn1 and write its reported melting point. 130 °C

Read the entry Oc1c(CCCBr)ccc2ccccc12 and write its reported melting point. 53 to 55 °C

Read the entry N#Cc1ccc2c(c1)ncn2-c1cccc(-c2cccnc2)c1 and write its reported melting point. 191 to 193 °C

Read the entry Oc1[nH]nc2c1-c1ccc(Cl)cc1CC2 and write its reported melting point. 232 to 233 °C

====

quantity: melting point

Read the entry OC1(C#Cc2ccc(-c3ccc(F)cc3)cc2)CN2CCC1CC2 (stereo not given) and write its reported melting point. 232 to 233 °C

Read the entry CCOC(=O)Cc1n[nH]c(=O)c2c(C)cccc12 and write its reported melting point. 197 to 199 °C

Read the entry CC1(O)OC(=O)C(c2c(F)cc(F)cc2F)=C1Cc1ccc(Cl)cc1 (stereo not given) and write its reported melting point. 127 to 129 °C

Read the entry CCC(=NO)c1nc(C)nc2c1c(C)c(C)n2-c1c(C)cc(C)cc1C and write its reported melting point. 84 to 87 °C

Read the entry CN(C)CCCC1CCCCN1C(=O)N1c2ccccc2C(=O)Nc2cccnc21 (stereo not given) and write its reported melting point. 142 to 144 °C

Read the entry COC(=O)c1cc(OCc2ccc3ccccc3n2)n(C(C)C)n1 and write its reported melting point. 106 to 107 °C

Read the entry OCCN1CCN(C2=Nc3ccccc3Sc3ccccc32)CC1 and write its reported melting point. 57 to 60 °C

Read the entry CCOC(=O)c1cnc(=O)n2c1sc1cc(OC)ccc12 and write its reported melting point. 231 to 232 °C

Read the entry CC1(c2cc3ccccc3[nH]2)CCCCC1 and write its reported melting point. 50 °C

Read the entry COc1cc(C(=O)Cl)ccc1NC(=O)c1ccccc1-c1ccccc1 and write its reported melting point. 121 to 123 °C

====

Kindly supply the reported melting point values for the records listed here.

Read the entry O=C(Nc1ccc(OCCCN2CCC3(CC2)OCCO3)c2ccccc12)c1cc(F)cc(N2CCCCC2)c1 and write its reported melting point. 70 to 72 °C

Read the entry CC(=O)Nc1ccc(-n2nc(CCCCCC(=O)O)c3c2CCC3)cc1 and write its reported melting point. 149 to 150 °C

Read the entry CCCCCN(CCC12CC3CC(CC(C3)C1)C2)C(=O)NCCc1ccccn1 and write its reported melting point. 80 to 100 °C

Read the entry Nc1ccc(-n2cc(C(=O)O)c(=O)cc2-c2ccc3ccccc3c2)cc1 and write its reported melting point. 148 to 151 °C

Read the entry O=C(O)c1ccccc1N1CCN(CC(O)COc2ccccc2)CC1 (configuration not stated) and write its reported melting point. 235 to 237 °C

Read the entry Clc1ccc2c(c1)C1(CO1)c1ccccc1C21CO1 (configuration not stated) and write its reported melting point. 61 to 67 °C

Read the entry C=CCn1c2c(c3cc(OCc4ccc5ccccc5n4)ccc31)CCCC2CC(=O)O (configuration not stated) and write its reported melting point. 150 °C

Read the entry Cc1nc(C(F)(F)F)ccc1/C=C/C(=O)Nc1ccc2[nH]ccc2c1 and write its reported melting point. 231 °C

Read the entry COC(=O)Cc1c(Cl)ncnc1N(C)C and write its reported melting point. 30 to 32 °C

Read the entry O=C1CCc2ccc(OCCCCN3CCN(c4cccc5c4CCCC5=O)CC3)nc2N1 and write its reported melting point. 169 to 170 °C

Read the entry COC(=O)C(C)(NC1OC(=O)C2C3C=CC(C3)C12)c1ccccc1 (configuration not stated) and write its reported melting point. 120 °C

Read the entry CNS(=O)(=O)c1cc2c(c(C(=O)NCC3CCCN3C)c1)OCCO2 (configuration not stated) and write its reported melting point. 187 to 188 °C

Read the entry COC(=O)Cc1ccc2c(c1)CCc1ccccc1S2 and write its reported melting point. 103 to 105 °C

Read the entry CC(Br)C(=O)N1C(=O)c2ccccc2OC12CCCCC2 (configuration not stated) and write its reported melting point. 74 to 76 °C

Read the entry CC(C)c1ccc(S(=O)(=O)n2c(CCCC(=O)O)cc3nc(Cl)ccc32)cc1 and write its reported melting point. 155 °C

Read the entry COc1cn(-c2ccc(-c3cnn(C)c3)cc2F)nc(-c2ccnn2-c2ccccc2)c1=O and write its reported melting point. 195 to 197 °C

Read the entry CCCCn1c(C)c(C)cc(N)c1=O and write its reported melting point. 94 to 97 °C

Read the entry CCCC(C)(O)C(=O)Nc1cc(Br)nc(OC)c1 (configuration not stated) and write its reported melting point. 122 °C

Read the entry O=C(Nc1ccc(CN2CCCCC2)cc1)C1=Cc2cc(-c3ccc(F)cc3)ccc2CC1 and write its reported melting point. 175 to 176 °C

Read the entry CC(C)(C)c1ccc(S(=O)(=O)Nc2nc(Cl)ncc2Oc2ccccc2Cl)cc1 and write its reported melting point. 186 to 187 °C

Read the entry COC(=O)c1ccc(Cc2csc3ccc(NC(=O)OC4CCCC4)cc23)c(OC)c1 and write its reported melting point. 163 to 164 °C

Read the entry CCN1CCc2ccc(Nc3ncc(Cl)c(N[C@H]4CCC[C@H]4C(N)=O)n3)cc2CC1 (relative stereo) and write its reported melting point. 237 to 242 °C

Read the entry O=C(c1ccccc1)c1cccc(-c2cccc(Cn3cncn3)c2)c1 and write its reported melting point. 121 °C

Read the entry COc1ccc(CNc2nc(-c3ccc(C(=O)O)cc3)nc3sc(C(F)(F)F)cc23)cc1OC and write its reported melting point. 250 °C

Read the entry CC1Sc2c(C(=O)O)c(=O)c3cc(F)c(N4CCSCC4)cc3n21 (configuration not stated) and write its reported melting point. 229 to 231 °C

Read the entry O=C(NC/C=C\COc1cc(CN2CCCCC2)ccn1)NC1CCCCC1 and write its reported melting point. 131 to 132 °C

Read the entry N#CC(C=O)c1cnccn1 (configuration not stated) and write its reported melting point. 192 to 194 °C

Read the entry CC1(C)C(=O)Nc2cc(C(=O)Nc3ccc(N)cc3)ccc21 and write its reported melting point. 216 to 218 °C

Read the entry O=S1(=O)CCN2C=CC=C(c3ccc(Oc4ccccc4)cc3)C2=N1 and write its reported melting point. 251 to 252 °C

Read the entry C=CCCc1sc(C#N)c2c1C(=O)CC(C)(C)C2 and write its reported melting point. 43 to 46 °C

Read the entry CS(=O)(=O)OC[C@H]1CCn2c(cc3ccccc32)C1 and write its reported melting point. 114 to 115 °C

Read the entry CSC1=NCC2CN=C(c3ccccc3F)c3cc(Cl)ccc3N12 (configuration not stated) and write its reported melting point. 163 to 165 °C

Read the entry O=C(O)CON(Cc1ccc(F)cc1)C(=O)C=C(O)C(=O)O and write its reported melting point. 135 to 138 °C

Read the entry COC(=O)[C@@H]1COC(=S)N1C(=O)c1ccccc1 and write its reported melting point. 87.2 to 88 °C

Read the entry Cc1nc(N(Cc2ccccc2)Cc2ccccc2)c2nc(Cc3ccccc3)n(CCc3ccccc3)c2c1C and write its reported melting point. 139 to 141 °C

Read the entry CC(C)(C)C(F)(F)c1ccc(C[C@@H](NC(=O)c2cccc3c2C=CCCC3)[C@@H](O)c2cccc(Cl)c2)cc1 (racemic) and write its reported melting point. 119 to 120 °C

Read the entry CC(C(O)c1ccc(N)cc1)N1CCC(Cc2ccccc2)CC1 (single isomer, unassigned; (-)) and write its reported melting point. 104 to 107 °C

====

quantity: melting point

Read the entry Cn1ncc(C(=O)N2CCOCC2)c1C(=O)Nc1ccn2nc(Br)nc2c1 and write its reported melting point. 198 to 214 °C

Read the entry CCCc1nc2c(N)nc3cc(-c4cccc(C(=O)N5CCCC5)c4)ccc3c2s1 and write its reported melting point. 177 to 180 °C

Read the entry CCCOc1ccc(-c2ccc3c(c2)C=C(C(=O)Nc2ccc(CN(C)C4CCOCC4)cc2)CCS3(=O)=O)cc1OCCC and write its reported melting point. 206 to 208 °C

Read the entry Cc1nn(-c2c(Cl)cc(C(F)(F)F)cc2Cl)c(C)c1C=O and write its reported melting point. 82 to 83 °C

Read the entry O=C(C=C1CCN(CCc2ccc(F)cc2)CC1)NCc1ccc(F)c(F)c1 and write its reported melting point. 117 to 120 °C

Read the entry CCCc1c(OCCCOc2ccc([N+](=O)[O-])cc2)ccc(C(C)=O)c1O and write its reported melting point. 98 °C

Read the entry C[C@@H]1[C@H](c2ccccc2)OC(=O)N1C(=O)CCC(F)(F)F and write its reported melting point. 93 to 95 °C

Read the entry COC(=O)c1cc(N)c(Cl)c(S(=O)(=O)n2cccc2)c1 and write its reported melting point. 178 to 181 °C

Read the entry FC(F)(F)c1cc(-c2ccc(Cl)cc2)nc2c(-c3ccncc3)ncn12 and write its reported melting point. 290 °C

Read the entry CC1(c2ccc(C#N)cc2)C(=O)N(Cc2ccc(F)cc2)Cc2cncn21 (stereo not drawn) and write its reported melting point. 66 to 70 °C

Read the entry CCCCCc1ccc(-c2ncc(-c3ccc(O)cc3)cn2)cc1 and write its reported melting point. 152 to 153 °C

Read the entry C=CCOc1cn(C)c2cc(F)ccc2c1=O and write its reported melting point. 158 to 159 °C

Read the entry C#Cc1ncn2c1CN(C)C(=O)c1c(Cl)cccc1-2 and write its reported melting point. 194 to 195 °C
